Some molecules, each annotated with its measured pKi.
TARGET SYSTEM: human cloned 5-HT6 receptors (Homo sapiens, UniProt P50406)
Construct: expressed in transfected cells; host or cells: Hela cells
Sequence (P50406 whole entry): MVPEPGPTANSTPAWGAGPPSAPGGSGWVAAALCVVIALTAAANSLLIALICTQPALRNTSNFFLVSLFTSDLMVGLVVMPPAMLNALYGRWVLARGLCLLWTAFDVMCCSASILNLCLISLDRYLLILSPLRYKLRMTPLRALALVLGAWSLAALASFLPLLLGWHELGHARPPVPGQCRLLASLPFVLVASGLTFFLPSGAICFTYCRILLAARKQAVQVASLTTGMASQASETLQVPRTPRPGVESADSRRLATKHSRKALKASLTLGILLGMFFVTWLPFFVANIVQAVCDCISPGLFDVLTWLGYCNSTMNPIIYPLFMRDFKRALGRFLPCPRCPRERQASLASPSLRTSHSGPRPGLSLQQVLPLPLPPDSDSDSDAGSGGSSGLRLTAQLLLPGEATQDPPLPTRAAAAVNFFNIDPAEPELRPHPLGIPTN
TEST NAME: 5-HT6 binding affinity, [3H]-LSD displacement on membranes of Hela cells expressing human cloned 5-HT6 receptors
EXPERIMENTAL CONDITIONS: [3H]-LSD 3.0 nM; Hela cell membranes; 120 min at room temperature; read-out: 5-HT6 binding Ki
pKi: −log10 of the molar value.
READOUT LABEL: pKi

> print(dat)
                                  structure  endpoint.value
1  O=S(=O)(c1ccccc1Br)n1ccc2c(N3CCN(Cc4ccncc4)CC3)cccc21            8.15
2  Nc1ccc(S(=O)(=O)n2ccc3c(N4CCN(Cc5ccncc5)CC4)cccc32)cc1            7.60
3  O=S(=O)(c1ccc2ccccc2c1)n1ncc2ccc(N3CCNCC3)cc21            7.43
4  O=S(=O)(c1ccccc1)n1ncc2c(N3CCN(CCCc4ccccc4)CC3)cccc21            8.22

###

TARGET SYSTEM: human cloned 5-HT6 receptors (Homo sapiens)
Construct: expressed in transfected cells; host or cells: Hela cells
TEST NAME: 5-HT6 binding affinity, [3H]-LSD displacement on membranes of Hela cells expressing human cloned 5-HT6 receptors
EXPERIMENTAL CONDITIONS: [3H]-LSD 3.0 nM; Hela cell membranes; 120 min at room temperature; read-out: 5-HT6 binding Ki
Structures can show the parent of a compound that is named as a salt.
READOUT LABEL: Ki (µM)

> print(dat)
                                   molecule  endpoint.value
1  O=S(=O)(c1ccc(OC(F)(F)F)cc1)n1ncc2c(N3CCN(Cc4ccccc4)CC3)cccc21           0.251
2  Nc1ccc(S(=O)(=O)n2ccc3c(N4CCN(Cc5cccnc5)CC4)cccc32)cc1           0.004
3  O=S(=O)(c1ccc(Br)cc1)n1ncc2cc(N3CCNCC3)ccc21           0.019
4  Nc1ccc(S(=O)(=O)n2ccc3c(N4CCN(C5=NCCN5)CC4)cccc32)cc1           0.006
5  O=S(=O)(c1ccccc1)n1ccc2c(N3CCN(Cc4cccnc4)CC3)cccc21           0.007
6  COc1ccc(S(=O)(=O)n2ccc3c(N4CCN(Cc5cccc([N+](=O)[O-])c5)CC4)cccc32)cc1OC           0.045
7  O=S(=O)(C=Cc1ccccc1)n1ncc2c(N3CCN(Cc4ccccc4)CC3)cccc21           0.172
8  Nc1ccc(S(=O)(=O)n2ccc3cc(N4CCNCC4)ccc32)cc1 [Example 73, hydrochloride]           0.034

###

Some molecules, each annotated with its measured pKi.
TARGET SYSTEM: human cloned 5-HT6 receptors (Homo sapiens)
Construct: expressed in transfected cells; host or cells: Hela cells
TEST NAME: 5-HT6 binding affinity, [3H]-LSD displacement on membranes of Hela cells expressing human cloned 5-HT6 receptors
EXPERIMENTAL CONDITIONS: [3H]-LSD 3.0 nM; Hela cell membranes; 120 min at room temperature; read-out: 5-HT6 binding Ki
pKi: −log10 of the molar value. Where a name gives a salt, the structure may show the parent alone.
READOUT LABEL: pKi

> print(dat)
                                    molecule                             target.system  endpoint.value
 1  O=C(CCCN1CCN(c2cccc3c2cnn3S(=O)(=O)c2ccccc2)CC1)c1ccc(F)cc1  human cloned 5-HT6 receptors (Homo sapiens)            8.52
 2  Cc1ccc(S(=O)(=O)n2ncc3c(N4CCN(Cc5ccccc5)CC4)cccc32)cc1  human cloned 5-HT6 receptors (Homo sapiens)            7.25
 3  Cc1nn(C)c(Cl)c1S(=O)(=O)n1ccc2cc(N3CCNCC3)ccc21  human cloned 5-HT6 receptors (Homo sapiens)            7.36
 4  O=S(=O)(c1ccccc1)n1ncc2c(N3CCN(CCc4ccccc4)CC3)cccc21 [Example 59, hydrochloride]  human cloned 5-HT6 receptors (Homo sapiens)            9.00
 5  O=S(=O)(c1c(Cl)nc2sccn12)n1ccc2c(N3CCN(Cc4ccncc4)CC3)cccc21  human cloned 5-HT6 receptors (Homo sapiens)            8.30
 6  O=S(=O)(c1cc(Cl)c(Cl)s1)n1ncc2cc(N3CCNCC3)ccc21  human cloned 5-HT6 receptors (Homo sapiens)            7.52
 7  O=S(=O)(c1ccccc1)n1ncc2c(N3CCN(CCOc4ccc(F)cc4)CC3)cccc21  human cloned 5-HT6 receptors (Homo sapiens)            6.51
 8  CC(=O)N1CCN(c2cccc3c2ccn3S(=O)(=O)c2c(Cl)nc3sccn23)CC1  human cloned 5-HT6 receptors (Homo sapiens)            6.66
 9  COc1cccc(CN2CCN(c3cccc4c3ccn4S(=O)(=O)c3ccc(N)cc3)CC2)c1  human cloned 5-HT6 receptors (Homo sapiens)            8.15
10  O=C(CN1CCN(c2cccc3c2cnn3S(=O)(=O)c2ccccc2)CC1)c1ccccc1  human cloned 5-HT6 receptors (Homo sapiens)            7.92
11  COc1ccc(S(=O)(=O)n2ncc3c(N4CCN(Cc5ccccc5)CC4)cccc32)cc1  human cloned 5-HT6 receptors (Homo sapiens)            6.94
12  O=S(=O)(c1ccccc1)n1ncc2c(N3CCN(Cc4ccccc4)CC3)cccc21 [Example 57, hydrochloride]  human cloned 5-HT6 receptors (Homo sapiens)            7.85
13  Nc1ccc(S(=O)(=O)n2ccc3c(N4CCN(Cc5ccccc5)CC4)cccc32)cc1  human cloned 5-HT6 receptors (Homo sapiens)            7.82
14  O=S(=O)(c1c(Cl)nc2sccn12)n1ccc2c(N3CCN(Cc4ccccc4)CC3)cccc21  human cloned 5-HT6 receptors (Homo sapiens)            7.25
15  CCCCOc1ccc(S(=O)(=O)n2ccc3cc(N4CCNCC4)ccc32)cc1  human cloned 5-HT6 receptors (Homo sapiens)            7.42
16  Cc1c(S(=O)(=O)n2ncc3ccc(N4CCNCC4)cc32)sc2ccc(Cl)cc12  human cloned 5-HT6 receptors (Homo sapiens)            7.62
17  O=S(=O)(c1cc(Cl)c(Cl)s1)n1ncc2ccc(N3CCNCC3)cc21  human cloned 5-HT6 receptors (Homo sapiens)            8.22
